# target system: T1, biotinylated CD32bECDHis (human, UniProt P31994 43-223, limits assumed, biotinylated (sites not given))
# T1 sequence (looked up): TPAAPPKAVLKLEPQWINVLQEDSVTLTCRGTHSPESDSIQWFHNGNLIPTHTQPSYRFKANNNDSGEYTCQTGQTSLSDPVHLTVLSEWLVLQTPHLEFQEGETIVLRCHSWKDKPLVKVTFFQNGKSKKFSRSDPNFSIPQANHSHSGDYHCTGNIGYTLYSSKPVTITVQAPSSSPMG
# assay name: competition ELISA, competitor 020
# maps each entry to its % residual binding
State the answer as a number, implicitly in %.

binder: Antibody 024 (antibody, V domains shown, also called HuMab 024) VH: QVQLVQSGAEVKKPGASVKVSCKASGYTFTSYGLSWVRQAPGQGLEWMGWISPYNGNTHYAQKLQGRVTMTTDTSTSTAYMDLRSLRSDDTAVYYCARDSAAHGMDVWGQGTTVTVSS VL: DIQMTQSPSSLSASVGDRVTITCRASQGISSWLAWYQQKPEKAPKSLIYAASSLQSGVPSRFSGSRSGTDFTLTISSLQPEDFATYYCQQYNSYPYTFGQGTKLEIKR
measure name: % residual binding
unit label: %
numeric result: 43

For reference, reported % residual binding for Antibody 063 (antibody, human IgG1, V domains shown, Human antibody; also called HuMab 063) VH: EVQLLESGGGLVQPGGSLRLSCAASGFTFSSYAMSWVRQAPGKGLEWVSAISDSGGSTYYADSVKGRFTISRDNSKNTLYLQMNSLRAEDTAAYYCAKEIAVALFDYWGQGTLVTVSS VL: EIVLTQSPATLSLSPGERATLSCRASQSVSSYLAWYQQKPGQAPRLLIYDASNRATGIPARFSGSGSGTDFTLTISSLEPEDFAVYYCQQRSSWPPYTFGQGTKLEIKR stands at 59

For reference, reported % residual binding for Antibody 028 (antibody, V domains shown, List 1 gives no VL for antibody 028; The VL is therefore uncertain; also called HuMab 028) VH: QVQVVQSGAEVKKPGASVKVSCKTSGYTFTSYGISWVRQAPGQGLEWMGWISAYNGNTKYAQKLQGRLTMTTDTSTTTAYMELRSLRSDDTAVYYCARDSAAHGMDVWGQGTTVSVSS VL: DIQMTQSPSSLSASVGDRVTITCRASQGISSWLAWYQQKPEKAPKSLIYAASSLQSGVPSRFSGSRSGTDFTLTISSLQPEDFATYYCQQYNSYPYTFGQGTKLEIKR stands at 24

For reference, reported % residual binding for Antibody 026 (antibody, V domains shown, Human antibody; also called HuMab 026) VH: QVQLVQSGAEVKKPGASVKVSCKASGYTFTSYGLSWVRQAPGQGLEWMGWISAYNGNTNYAQKLQGRVTMTTDTSTSTAYMDLRSLRSDDTAVYYCARDSAAHGMDVWGQGTTVTVSS VL: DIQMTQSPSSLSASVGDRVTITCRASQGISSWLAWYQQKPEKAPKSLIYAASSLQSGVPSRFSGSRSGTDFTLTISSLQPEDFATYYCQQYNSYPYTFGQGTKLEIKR stands at 4

For reference, reported % residual binding for Antibody 053 (antibody, human IgG1, V domains shown, Human antibody; also called HuMab 053) VH: QVQLVESGGGVVQPGRSLRLSCAVSGFTFRSYGMHWVRQAPGKGLEWVAVIWYDGSIKYYADSVKGRFTISRDNSKNTLYLQMNSLRAEDTAVYFCAREGGRDAFDIWGQGTMVTVSS VL: AVQLTQSPSSLSASVGDRVTITCRASQGISSALAWYQQKPGKAPKLLIYDASSLESGVPSRFSGSGSGTDFTLTISSLQPEDFATYCCQQFNSYPHTFGGGTKVEIKR stands at 19

For reference, reported % residual binding for Antibody 038 (antibody, human IgG1, V domains shown, Human antibody; also called HuMab 038) VH: QVQLVESGGGVVQPGRSLRLSCAASGFTFSTYGMHWVRQAPGKGLEWVAVISHDGSDKYYADSVKGRFTISRDNSKNTLYLQMNSLRAEDTAVYYCARDQSIIETFDYWGQGTLVTVSS VL: EIVLTQSPATLSLSPGERATLSCRASQSVSSYLAWYQQKPGQAPRLLIYDASNRATGIPARFSGSGSGTDFTLTISSLEPEDFAVYYCQQRSNWGFTFGPGTKVDIKR stands at 310

For reference, reported % residual binding for Antibody 022 (antibody, V domains shown, also called HuMab 022) VH: QVQLVQSGAEVKKPGASVKVSCKASGYTFTSYGLSWVRQAPGQGLEWMGWISPYNGNTHYAQKLQGRVTMTTDTSTSTADMDLRSLRSDDTAVYYCARASAAHGMDVWGQGTTVTVSS VL: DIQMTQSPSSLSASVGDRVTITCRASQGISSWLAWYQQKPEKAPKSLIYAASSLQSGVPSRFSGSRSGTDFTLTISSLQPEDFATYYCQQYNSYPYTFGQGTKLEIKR stands at 35

For reference, reported % residual binding for Antibody 020 (antibody, V domains shown, also called HuMab 020) VH: QVQLVQSGGEVKKPGASVKVSCKTSGYTFTSYGISWVRQAPGQGLEWMGWISAYNGNTKYAQKLQGRLTMTTDTSTTTAYMELRSLRSDDTAVYYCARDSAAHGMDVWGQGTTVTVSS VL: DIQMTQSPSSLSASVGDRVTITCRASQGISSWLAWYQQKPEKAPKSLIYAASSLQSGVPSRFRGSGSGTDFTLTISSLQPEDFATYYCQQYNSYPYTFGQGTKLEIKR stands at 20
